# Target Or System: Torsin-1A (Homo sapiens) (UniProt O14656)
# Sequence (O14656 whole entry, looked up): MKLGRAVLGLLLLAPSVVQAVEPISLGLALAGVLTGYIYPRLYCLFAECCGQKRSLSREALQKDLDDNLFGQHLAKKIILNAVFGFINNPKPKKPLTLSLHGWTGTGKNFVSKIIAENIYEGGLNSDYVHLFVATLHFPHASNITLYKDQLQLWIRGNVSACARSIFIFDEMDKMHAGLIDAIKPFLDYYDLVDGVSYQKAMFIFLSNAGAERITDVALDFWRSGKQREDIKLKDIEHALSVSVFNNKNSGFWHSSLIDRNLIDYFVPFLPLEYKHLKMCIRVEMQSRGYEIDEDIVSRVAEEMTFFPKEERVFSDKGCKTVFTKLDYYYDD
# Assay Name: torsin A binders from cell lysate, primary screen, small-molecule microarray, wild-type, 635/667 nm (AID 1149)
# Measurement Context: COS7 hTOR1A-WT lysate, 635 nm fluorescence, higher = more signal
So basically: composite z-score at 0.3 or higher? That is MET. Lower than 0.3? That is NOT MET.

Compound	Class Label
C=C(C)c1cc2c(c(CCCCCC)n1)[Si](C(C)C)(C(C)C)OC2	NOT MET
COc1ccccc1CN1C(=O)c2ccccc2[C@](Cc2ccccc2I)(C(=O)NCC(F)(F)F)[C@@H]1c1ccc(CO)cc1	MET
O=C1OCC=C[C@H]2OC34C=CCN(c5ccc(Cl)cc5)C(=O)[C@H]3N(CCO)C(=O)[C@@H]4[C@@H]12 (stereo partly specified)	NOT MET
[N-]=[N+]=Nc1ccccc1[C@H]1OC(c2ccc(OCCCO)cc2)=N[C@@]1(Cc1ccccc1)C(=O)N1CCCCC1	MET
C=CCC(OC(C)=O)[C@@H]1[C@@H](N(Cc2cc3ccccc3o2)C(=O)Cc2ccc(F)cc2)c2cc(OCCCO)ccc2N1C(=O)c1ccc2ccccc2c1 (stereo partly specified)	NOT MET
CC(C)(C)OC(=O)CC[C@@]1(C(=O)NCc2ccccc2)N=C(c2ccc(OCCCO)cc2)O[C@@H]1c1ccccc1N=[N+]=[N-]	NOT MET
O=C1O[C@@H](c2ccccc2)[C@@H](c2ccccc2)N2[C@@H](c3ccc(O)cc3)[C@]3(C(=O)Nc4ccc(C#CC5(O)CCCCCC5)cc43)[C@@H](C(=O)NC[C@H](O)c3ccccc3)[C@H]12	NOT MET
CC(c1ccccc1)C(O)C1C=CC2C(=O)N(c3ccccc3)C(=O)C2N1Nc1ccc([N+](=O)[O-])cc1 (stereo unspecified)	MET
O=C1O[C@H](c2ccccc2)[C@H](c2ccccc2)N2[C@H]1[C@@H](C(=O)NC[C@H](O)c1ccccc1)[C@]1(C(=O)Nc3ccc(C#CCCO)cc31)[C@H]2c1ccc(OCCO)cc1	NOT MET
CCCCCCc1nc(C2CC2)cc2c1[Si](C(C)C)(C(C)C)O[C@H]2c1ccccc1	MET
O=C1O[C@H](c2ccccc2)[C@H](c2ccccc2)N2[C@H]1[C@@H](C(=O)O)[C@]1(C(=O)Nc3ccc(C#CC4=CCCCC4)cc31)[C@H]2c1ccc(O)cc1	NOT MET
CC(C)(C)OC(=O)CC[C@]1(C(=O)NCC(O)CO)N=C(c2ccc(OCCCO)cc2)O[C@H]1c1ccccc1 (stereo partly specified)	MET
CCCCC=C[C@@H](NC(=O)c1ccc(-c2ccccc2)cc1)c1ccccc1	MET
COc1ccc(CCNC(=O)[C@@]2(Sc3ccc(C)cc3)CC(=O)N(C3Cc4ccccc4C3)[C@@H]2c2ccc(CO)cc2)cc1	NOT MET
CCCC[C@@H](O)C1=C(COc2ccccc2)C[C@H]2C(=O)N(C)C(=O)[C@H]2[C@H]1CO	NOT MET
COc1ccc([Si](C)(C)[C@H]2[C@H](CCn3cc([C@H](O)c4ccccc4)nn3)O[C@@]3(C(=O)N(Cc4ccc(N5C(=O)c6cccc7cccc5c67)cc4)c4ccccc43)[C@@H]2C)cc1	NOT MET
